- systemName: T1, AAV5
- T1 construct: also called adeno-associated virus serotype 5
- experiment: SPR, AAV on CM5 chip;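 also: surface plasmon resonance with AAV amine-coupled to the chip as ligand, nanobodies injected as analyte over a concentration series, rate constants and affinity fitted from binding curves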
Could you please report measured Kd for the items listed next?
Numbers only, in nM.

Recorded results for 3 binders are shown here.
{"binder": "A4-038 (VHH) VHH: VQLQESGGGLVQPGGSLRLSCAASGSHFSINTMGWYRQAPGKQRELVATVTRGGSTNYANSVKGRFTISRDNAKNTVYLQMNSLRPEDTAVYYCHLDEVRQSSWTTSNLWGQGTQVTVSS", "measurement": 1.57}
{"binder": "A4-026 (VHH) VHH: VQLQESGGGLVQPGGSLRLSCAASGSNFRINTMGWYRQAPGKQRELVAPVTRGGSTNYADSVKGRFTISRDNAKNTVYLQMNSLRPEDTAVYYCHVDEVRESSWTTSNLWGQGTQVTVSS", "measurement": 37.4}
{"binder": "A4-024 (VHH) VHH: VQLQESGGGLVQPGGSLRLSCAASGSNFRINTMGWYRQAPGKQRELVATVTRGGSTNYADSVKGRFTISRDNPKNTVYLQMNSLRPEDTAVYYCHVDEVRESSWTTSNLWGQGTQVTVSS", "measurement": 35.5}

Count: 5. Required value per item: Kd.
1. A4-046 (VHH) VHH: VQLQESGGGLVQPGGSLRLSCAASGSRFSINTMGWYRQAPGKQRELVATVTRGGSTNYADSVKGRFTISRDNAKNTVYLQMNSLRPEDTAVYYCHVDEVRQSSWTTSNLWGQGTQVTVSS
2. A4-018 (VHH) VHH: VQLQESGGGLVQAGGSLRLSCAASGSRFSINTMGWYRQAPGKQREFVATVTRGGNTNYAESVKGRFTISRDNAKNTVYLQMNSLRPEDTAVYYCHVDEVRDSSWTTSNIWGQGTQVTVSS
3. A4-029 (VHH) VHH: VQLQESGGGLVQPGGSLRLSCAASGSNFSINTMGWYRQRAGKQRELVATVTRGGSTNYADSVKGRFTISRDNAKNTVYLQMNSLRPEDTAVYYCHIDEIRESSWTTSNLWGQGTQVTVSS
4. A4-033 (VHH) VHH: VQLQESGGGLVQPGGSLRLSCVASGSSFSINTMGWYRRAPGKQRELVATVTRDGSTNYANSVKGRFTISRDNAKNTVYLQMNSLRPEDTAVYYCHVDEVRQSSWTTSNLWGQGTQVTVSS
5. A4-031 (VHH) VHH: VQLQESGGGLVQPGGSLRLSCAASGSGFSINTMGWYRQAPGKQRELVATVTSAGSTNYAGSVKGRFTISRDNAKNTVYLQMNSLRPEDTAVYYCHVDEIRQSSWTTSNLWGQGTQVTVSS

Outgoing:
1. 55.3
2. 0.962
3. 92.8
4. 243
5. 41.9
